Attribution: the supplement of paper PMC11061612

List of combination Emax values.
Tested on: RCC10RGB (Kidney Carcinoma)
Experiment: combination Emax (second highest fraction inhibited in the dose matrix, 72 h); higher = more inhibition; extreme values may be limits of the assay
Note: the reply should be a number with no unit written.

Look over these answered cases.
- compound: "COc1nnc2ccc(N3CCC(c4ccc(OCCN5CCN(C)C(=O)[C@H]5C)cc4)CC3)nn12 [AZD5153] + Cn1cnc2c(F)c(Nc3ccc(Br)cc3Cl)c(C(=O)NOCCO)cc21 [Selumetinib] (first compound max 1 µM, 7x7, partner max 10 µM)"
  combination Emax: 0.574
- compound: "CC1(C)CCC(CN2CCN(c3ccc(C(=O)NS(=O)(=O)c4ccc(NCC5CCOCC5)c([N+](=O)[O-])c4)c(Oc4cnc5[nH]ccc5c4)c3)CC2)=C(c2ccc(Cl)cc2)C1 [Venetoclax] + COc1cc(Nc2ncc3c(n2)-c2ccc(Cl)cc2C(c2c(F)cccc2OC)=NC3)ccc1C(=O)O [Alisertib] (first compound max 1 µM, 7x7, partner max 10 µM)"
  combination Emax: 0.568

Now take the following compound into account.
# query: combination Emax of entry CN(CCO)CC[C@H](CSc1ccccc1)Nc1ccc(S(=O)(=O)NC(=O)c2ccc(N3CCC([C@@H](O)c4ccccc4-c4ccc(Cl)cc4)CC3)cc2)cc1S(=O)(=O)C(F)(F)F [AZD4320] + C[C@@H]1COCCN1C2=NC(=NC(=C2)C3(CC3)[S@](=N)(=O)C)C4=C5C=CNC5=NC=C4 [AZD6738] (first compound max 1 µM, 7x7, partner max 10 µM) 0.492

###

System: EW-22 (Ewing's Sarcoma)
Experiment: combination Emax (second highest fraction inhibited in the dose matrix, 72 h); higher = more inhibition; extreme values may be limits of the assay
propertyLabel: combination Emax
Note: the reply should be a number with no unit written.

Look over these answered cases.
- compound: "Cc1cc2ncnn2cc1Nc1ncc2c(n1)n(C1CCOCC1)c(=O)n2C [AZD7648] + C[C@@H]1COCCN1C2=NC(=NC(=C2)C3(CC3)[S@](=N)(=O)C)C4=C5C=CNC5=NC=C4 [AZD6738] (first compound max 10 µM, 7x7, partner max 10 µM)"
  combination Emax: 0.851
- compound: "Cc1c2c(nn1C)CSCc1cc(n(C)n1)CSc1cc(c3ccccc3c1)OCCCc1c(C(=O)O)n(C)c3c-2c(Cl)ccc13 [AZD5991] + CS(=O)(=O)CCNCc1ccc(-c2ccc3ncnc(Nc4ccc(OCc5cccc(F)c5)c(Cl)c4)c3c2)o1 [Lapatinib] (first compound max 1 µM, 7x7, partner max 10 µM)"
  combination Emax: 0.41
- compound: "O=C(c1cc(Cc2n[nH]c(=O)c3ccccc23)ccc1F)N1CCN(C(=O)C2CC2)CC1 [Olaparib] + COc1nnc2ccc(N3CCC(c4ccc(OCCN5CCN(C)C(=O)[C@H]5C)cc4)CC3)nn12 [AZD5153] (first compound max 10 µM, 7x7, partner max 1 µM)"
  combination Emax: 0.909

# query: combination Emax of entry C[C@@H](Nc1cc(F)cc(F)c1)c1cc(C(=O)N(C)C)cc2c(=O)cc(N3CCOCC3)oc12 [AZD8186] + C1CN(CCC1(C(=O)N[C@@H](CCO)C2=CC=C(C=C2)Cl)N)C3=NC=NC4=C3C=CN4 [AZD5363] (first compound max 10 µM, 7x7, partner max 10 µM) 0.45

###

Test system: WSU-DLCL2 (B-Cell Non-Hodgkin's Lymphoma);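 also: after 72 h of two-drug dosing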
Assay: Bliss excess, mean over the matrix (fraction); higher = more synergy
propertyLabel: Bliss excess
Note: the reply should be a number with no unit written.

# query: Bliss excess of entry C=CCn1c(=O)c2cnc(Nc3ccc(N4CCN(C)CC4)cc3)nc2n1-c1cccc(C(C)(C)O)n1 [AZD1775] + C1CN(CCC1(C(=O)N[C@@H](CCO)C2=CC=C(C=C2)Cl)N)C3=NC=NC4=C3C=CN4 [Capivasertib] (first compound max 3 µM, partner max 3 µM) -0.0709

# query: Bliss excess of entry CC1(C)CCC(CN2CCN(c3ccc(C(=O)NS(=O)(=O)c4ccc(NCC5CCOCC5)c([N+](=O)[O-])c4)c(Oc4cnc5[nH]ccc5c4)c3)CC2)=C(c2ccc(Cl)cc2)C1 [Venetoclax] + COc1cc(Nc2ncc3c(n2)-c2ccc(Cl)cc2C(c2c(F)cccc2OC)=NC3)ccc1C(=O)O [Alisertib] (first compound max 1 µM, 7x7, partner max 10 µM) 0.238

# query: Bliss excess of entry C=CCn1c(=O)c2cnc(Nc3ccc(N4CCN(C)CC4)cc3)nc2n1-c1cccc(C(C)(C)O)n1 [AZD1775] + Nc1ccn([C@@H]2O[C@H](CO)[C@@H](O)C2(F)F)c(=O)n1 [Gemcitabine] (first compound max 1 µM, partner max 0.3 µM) 0.0694

###

Tested on: SNG-M (Endometrial Carcinoma)
Assay: combination Emax (second highest fraction inhibited in the dose matrix, 72 h); higher = more inhibition; extreme values may be limits of the assay
propertyLabel: combination Emax

Look over these answered cases.
- molecule: "CC1(C)CCC(CN2CCN(c3ccc(C(=O)NS(=O)(=O)c4ccc(NCC5CCOCC5)c([N+](=O)[O-])c4)c(Oc4cnc5[nH]ccc5c4)c3)CC2)=C(c2ccc(Cl)cc2)C1 [Venetoclax] + C[C@@H](Nc1cc(F)cc(F)c1)c1cc(C(=O)N(C)C)cc2c(=O)cc(N3CCOCC3)oc12 [AZD8186] (first compound max 1 µM, 7x7, partner max 3 µM)"
  experimentalSystem: "SNG-M (Endometrial Carcinoma)"
  propertyLabel: "combination Emax"
  observedValue: 0.655
- molecule: "CC1(C)CCC(CN2CCN(c3ccc(C(=O)NS(=O)(=O)c4ccc(NCC5CCOCC5)c([N+](=O)[O-])c4)c(Oc4cnc5[nH]ccc5c4)c3)CC2)=C(c2ccc(Cl)cc2)C1 [Venetoclax] + CN(C)CCCOc1ccc(-c2ccc3ncc4c(c3c2)n(C2CCOCC2)c(=O)n4C)cn1 [AZD0156] (first compound max 1 µM, 7x7, partner max 1 µM)"
  experimentalSystem: "SNG-M (Endometrial Carcinoma)"
  propertyLabel: "combination Emax"
  observedValue: 0.127
- molecule: "Cc1c2c(nn1C)CSCc1cc(n(C)n1)CSc1cc(c3ccccc3c1)OCCCc1c(C(=O)O)n(C)c3c-2c(Cl)ccc13 [AZD5991] + C1CN(CCC1(C(=O)N[C@@H](CCO)C2=CC=C(C=C2)Cl)N)C3=NC=NC4=C3C=CN4 [Capivasertib] (first compound max 1 µM, 7x7, partner max 3 µM)"
  experimentalSystem: "SNG-M (Endometrial Carcinoma)"
  propertyLabel: "combination Emax"
  observedValue: 0.333
- molecule: "Cc1c2c(nn1C)CSCc1cc(n(C)n1)CSc1cc(c3ccccc3c1)OCCCc1c(C(=O)O)n(C)c3c-2c(Cl)ccc13 [AZD5991] + CC(=O)O[C@H]1C(=O)[C@@]2(C)[C@H]([C@H](OC(=O)c3ccccc3)[C@]3(O)C[C@H](OC(=O)[C@H](O)[C@@H](NC(=O)c4ccccc4)c4ccccc4)C(C)=C1C3(C)C)[C@]1(OC(C)=O)CO[C@@H]1C[C@@H]2O [Paclitaxel] (first compound max 1 µM, 7x7, partner max 3 µM)"
  experimentalSystem: "SNG-M (Endometrial Carcinoma)"
  propertyLabel: "combination Emax"
  observedValue: 1
- molecule: "COc1cccc(OCCCN)c1-c1cc(Nc2cnc(C#N)cn2)n[nH]1 [Prexasertib] + C[C@@H]1COCCN1C2=NC(=NC(=C2)C3(CC3)[S@](=N)(=O)C)C4=C5C=CNC5=NC=C4 [AZD6738] (first compound max 1 µM, 7x7, partner max 10 µM)"
  experimentalSystem: "SNG-M (Endometrial Carcinoma)"
  propertyLabel: "combination Emax"
  observedValue: 1

# query: combination Emax of entry CN(CCO)CC[C@H](CSc1ccccc1)Nc1ccc(S(=O)(=O)NC(=O)c2ccc(N3CCC([C@@H](O)c4ccccc4-c4ccc(Cl)cc4)CC3)cc2)cc1S(=O)(=O)C(F)(F)F [AZD4320] + CCN(CCO)CCCOc1ccc2c(Nc3cc(CC(=O)Nc4cccc(F)c4)[nH]n3)ncnc2c1 [AZD2811] (first compound max 1 µM, 7x7, partner max 1 µM) 0.775

# query: combination Emax of entry CC1(C)CCC(CN2CCN(c3ccc(C(=O)NS(=O)(=O)c4ccc(NCC5CCOCC5)c([N+](=O)[O-])c4)c(Oc4cnc5[nH]ccc5c4)c3)CC2)=C(c2ccc(Cl)cc2)C1 [Venetoclax] + COc1cc(Nc2ncc3c(n2)-c2ccc(Cl)cc2C(c2c(F)cccc2OC)=NC3)ccc1C(=O)O [Alisertib] (first compound max 1 µM, 7x7, partner max 10 µM) 0.752

###

Tested on: EKVX (Non-Small Cell Lung Carcinoma)
Test: combination Emax (second highest fraction inhibited in the dose matrix, 72 h); higher = more inhibition; extreme values may be limits of the assay
propertyLabel: combination Emax

# query: combination Emax of entry C[C@@H]1COCCN1c1cc(C2([S@](C)(=N)=O)CC2)nc(-c2ccnc3[nH]ccc23)n1 [AZD6738] + O=C(c1cc(Cc2n[nH]c(=O)c3ccccc23)ccc1F)N1CCN(C(=O)C2CC2)CC1 [Olaparib] (first compound max 10 µM, 7x7, partner max 10 µM) 0.32

# query: combination Emax of entry CC1(C)CCC(CN2CCN(c3ccc(C(=O)NS(=O)(=O)c4ccc(NCC5CCOCC5)c([N+](=O)[O-])c4)c(Oc4cnc5[nH]ccc5c4)c3)CC2)=C(c2ccc(Cl)cc2)C1 [Venetoclax] + C[C@@H](Nc1cc(F)cc(F)c1)c1cc(C(=O)N(C)C)cc2c(=O)cc(N3CCOCC3)oc12 [AZD8186] (first compound max 1 µM, 7x7, partner max 3 µM) 0.367

# query: combination Emax of entry CC1(C)CCC(CN2CCN(c3ccc(C(=O)NS(=O)(=O)c4ccc(NCC5CCOCC5)c([N+](=O)[O-])c4)c(Oc4cnc5[nH]ccc5c4)c3)CC2)=C(c2ccc(Cl)cc2)C1 [Venetoclax] + CCN(CCO)CCCOc1ccc2c(Nc3cc(CC(=O)Nc4cccc(F)c4)[nH]n3)ncnc2c1 [AZD2811] (first compound max 1 µM, 7x7, partner max 1 µM) 0.178

# query: combination Emax of entry CN(CCO)CC[C@H](CSc1ccccc1)Nc1ccc(S(=O)(=O)NC(=O)c2ccc(N3CCC([C@@H](O)c4ccccc4-c4ccc(Cl)cc4)CC3)cc2)cc1S(=O)(=O)C(F)(F)F [AZD4320] + C1CN(CCC1(C(=O)N[C@@H](CCO)C2=CC=C(C=C2)Cl)N)C3=NC=NC4=C3C=CN4 [Capivasertib] (first compound max 1 µM, 7x7, partner max 3 µM) 0.269

# query: combination Emax of entry CN(C)CCCOc1ccc(-c2ccc3ncc4c(c3c2)n(C2CCOCC2)c(=O)n4C)cn1 [AZD0156] + CCN(CCO)CCCOc1ccc2c(Nc3cc(CC(=O)Nc4cccc(F)c4)[nH]n3)ncnc2c1 [AZD2811] (first compound max 1 µM, 7x7, partner max 1 µM) 0.0666

# query: combination Emax of entry Cc1c2c(nn1C)CSCc1cc(n(C)n1)CSc1cc(c3ccccc3c1)OCCCc1c(C(=O)O)n(C)c3c-2c(Cl)ccc13 [AZD5991] + C[C@@H](Nc1cc(F)cc(F)c1)c1cc(C(=O)N(C)C)cc2c(=O)cc(N3CCOCC3)oc12 [AZD8186] (first compound max 1 µM, 7x7, partner max 3 µM) 0.29
